Test: yeast display, Sf9 membrane polyspecificity reagent, FACS + sequencing; frameworks hold sequencing errors

{"Input sequence": "QVQLVESGGGLVQAGGSLRLSCAASGRTFRVYAMGWYRQAPWKERELVAAISGRGGRTYYADSVKGRFTISRDNAKNTVYLQMNSLKPEDTAVYYCTADVGVYHDDYWGQGTQVTVSS", "polyreactivity (PSR sort gate)": "high polyreactivity"}
{"Input sequence": "QVQLVESGGGLVQAGGSLRLSCAASGRIFSSYAMGWYRQAPGKERELVAAISGSGGRTYYADSVKGRFTISRDNAKNTVYLQMNSLKPEDTAVYYCNARRRSPYSTGVAYDYWGQGTQVTVSS", "polyreactivity (PSR sort gate)": "high polyreactivity"}
{"Input sequence": "QVQLVESGGGLVQAGGSLRLSCAASGSTFYRYAMGWYRPAPGKERELVAAISSSGGSTYYADSVKGRFTISRDNAKNTVYLQMNSLKPEDTAVYYGNADVHSQYDYWGQGTQVTVSS", "polyreactivity (PSR sort gate)": "low polyreactivity"}
{"Input sequence": "QVQLVESGGGLVQAGGSLRLSCAAYGGTFNGNTMGWYRQAPGKERELVAVIDWSGGSTYYADSVKGRFTISRDNAKNTVYLQMNSLKPEDTAVYYCNADSDAQFREPKGLYYWGQGTQVTVSS", "polyreactivity (PSR sort gate)": "low polyreactivity"}
{"Input sequence": "PVQLVESGGGLVQAGGSLRLSCAASGSIFGVNDMGWYIQGAGKERELVAGINQGGGSTYYADSVKGRFTISRDIAKNTVYLQMNSLKPEDTAVYYCAAVRYVLRSPARYGYWGQGTQVTVSS", "polyreactivity (PSR sort gate)": "low polyreactivity"}
{"Input sequence": "QVQLVESGGGLVQAVGRLRLSCAASGRTFYYNGMGWYRQAPGKERELVAAISSGGTTSYADSVKGRFTISRDNAKNTVYLQMNSLKPEDTAVYYCNVYDKAPAYDYWGQGTQVTVSS", "polyreactivity (PSR sort gate)": "low polyreactivity"}
{"Input sequence": "QVQLVESGGGLVQAGGSLRLSCAASGSIFSINAMGWYRQAPGKERELVAAISWSGGSTYYADSVKGRFTISRDNAKNTVYLQMNSLKPEDTAVYYCAASYWDTEPGYREYDYWGQGTQVTVSS", "polyreactivity (PSR sort gate)": "low polyreactivity"}
{"Input sequence": "QVHLVESGGGLVQAGGSLRLSCAASGRTLYCYAMGWYRQAPGKERELVASIRSGGSTNYADSVKGRFTISRDNAKNTVYLQMNSLKPEVTAVYYCNTGSRLDRVDSWGQGTQVTVSS", "polyreactivity (PSR sort gate)": "low polyreactivity"}
{"Input sequence": "QVQLVDSGGGLVQAGGSLRLSCAASGSILAINTMGWYRPAPGKEREFVAAISAGGTSTYYADSVKGRFTISRDNAKNTVSLQMNSLKPEDTAVYYCAAIFIIYRTGYRRYYWGQGTQVTVSS", "polyreactivity (PSR sort gate)": "high polyreactivity"}
{"Input sequence": "QVQLVESGGGLVQAGGSLRLICAASGISFDGNPMGWYRQAPGKERELVASITSDSSTNYADSVKGRFTISRDNAKNTVYLQMKSLKPEDTAVYYCAADHWIAPRRDYWGQGTQVTVSS", "polyreactivity (PSR sort gate)": "low polyreactivity"}
{"Input sequence": "QDQLVESGGGLVQAGGSLRLSCAASGITFQWYAMGWYRQAPGKEREFVAAITYRGGSTYYADSVKGRFTISRDNAKNTVYLQMNSLKPEDTAVYYCARDDSRLLHPSWLDYWGKGTQVTVSS", "polyreactivity (PSR sort gate)": "high polyreactivity"}

---

Test: yeast display, Sf9 membrane polyspecificity reagent, FACS + sequencing; frameworks hold sequencing errors
Property name: polyreactivity (PSR sort gate)

{"Input sequence": "QVQLVESGGGLVQAGGSLRLSCAASGRIFARYAMGWYRQAPGKETELVAAISRGGSTKYADSVKGRFTISRDNAKNTVYLQMNSLNPVDTAVYYCARQLWGSPYGAYYAGDYWGQGTQVTVSS", "Property name": "polyreactivity (PSR sort gate)", "Meas value": "low polyreactivity"}
{"Input sequence": "QVQLVESGGGLVQAGGSLRLSCAASGYTFGYYAMGWYRQAPGKERELVAAISYSGGNTYYADSVKGRFTISRDNAKNTVYLQMNSLKPEDTAVYYCNKRYWVRTGKVSSYAYWGQGTQVTVSS", "Property name": "polyreactivity (PSR sort gate)", "Meas value": "high polyreactivity"}
{"Input sequence": "QVQLVESGGGLVQAGGSLRLSCAASGSTYYYYAMGSYRPAPGKERELVAAINTSGGITYYADSVKGRFTISRDNAKNTVYLQMNSLKPEDTAVYYCAARNRSYCGTFGSYNYDYWGQGTQVTVSS", "Property name": "polyreactivity (PSR sort gate)", "Meas value": "high polyreactivity"}
{"Input sequence": "QVQLEETGGGLVQAGGSLPLSCAASGRTFRFYTMGWYRQAPGKERELVAVISNGGSTNYADSVKGRFTISRDNANTTVYLQMNSLKPEDTAVYDCAAGWVWSGNDYYYWGQGTQVTVSS", "Property name": "polyreactivity (PSR sort gate)", "Meas value": "low polyreactivity"}
{"Input sequence": "QVQLVESGGGLVQAGGSLRLSCAASGRIFSNNAMGWYRQAPGKERELVAAISWNGGRTYYADSVKGRFTISRDNAKNTVYLQMNSLKPEDTAVYYCAAGRYDYWGQGTQVTVSS", "Property name": "polyreactivity (PSR sort gate)", "Meas value": "high polyreactivity"}
{"Input sequence": "QVQLVDSGGGLVQAGGSLRLSCAASGSTFRRNAMGWYRQAPGKERELVAAITSSGGGSTYYADSVKGRFTISRDNAKNSVYLQMNSLKPEDSAVYYCAKDFWYRSYDYWGQGTQVTVSS", "Property name": "polyreactivity (PSR sort gate)", "Meas value": "low polyreactivity"}
{"Input sequence": "QVQLVESGGGLVQAGGSLRLSCAASGRTLWANAMGWYRQAPGKERELVAAITYSGGSTHYADSVKGRFTISRDNAKNTVYLQMNSLKPEDTAVYYCNADYDSYYTYLYDYWGQGTQVTVSS", "Property name": "polyreactivity (PSR sort gate)", "Meas value": "low polyreactivity"}
{"Input sequence": "QVQLVESGGGLVQAGGSLRLSCAASGIIFAYYAMGWYRQAPGKETELVAAINRSGGTTYYADSVKGRFTISRDNAKNTVYLQMNSLKPEDTAVYYCNALTTWRYRYDYWGQGTQVTVSS", "Property name": "polyreactivity (PSR sort gate)", "Meas value": "high polyreactivity"}
{"Input sequence": "QVQLEESGVGLVQAGGSLRLSCAASGSIYGYAMGWYRQSPGKQRELVASISSGGSTYYADSVKGRFTISRDNAKNSVYLQMNSLKPEDTAVYYCAARAYSYQAQSYYWGQGTQVTVSS", "Property name": "polyreactivity (PSR sort gate)", "Meas value": "high polyreactivity"}
{"Input sequence": "QVQRVESGGGLVQAGGSLRLSCAASGSIFYRNVMGWYRPAPGKERELVAAISSGTSTYYADSVKGRFTISRDNAKNTVYLQMTSLKPEDPAVYYCAAEGPHYYGQRWYYGVDYWGQGTQVTVSS", "Property name": "polyreactivity (PSR sort gate)", "Meas value": "low polyreactivity"}
{"Input sequence": "QVQLVESGGGLVQAGGSLRLSCAASGSTFYRYAMGWYRQAPGKERELVAAITRGGGRTYYADSVKGRFTISRDNAKNTVYLQMNSLKPEDTAVYYCNAASPYYDSWGQGTQVTVSS", "Property name": "polyreactivity (PSR sort gate)", "Meas value": "high polyreactivity"}
{"Input sequence": "QVQLVESGGGLVQAGGSLRLSCAASGRIFYYNAMGWYREAPGKERELVAVITRSGGRTFYADSVKGRFTISRDNAKNTVYLQMNSLKPEDTAVYYCAARYRYYPVTTRGYYWGQGTQVTVSS", "Property name": "polyreactivity (PSR sort gate)", "Meas value": "high polyreactivity"}
{"Input sequence": "QVQLVESGGGLVQAGGSLRLRCDASGRIFISYTMGWSRPPPGKERELVAGIDSSGTSTYYADSVKGRFTISRDNAKNTVYLLMNSLKPEDNADYYCNVDGYWKDTSTEMVYWGQGTQVTVSS", "Property name": "polyreactivity (PSR sort gate)", "Meas value": "low polyreactivity"}
{"Input sequence": "QVQLVESGGGLVQAGGSLRLSCAASGSNFWRNVMGWYRQAPGKERELVAAISSGGSTYYADSVKGRFTISRDNAKNTVYLQMNSLKPEDTEVYYCAAPRYDYWGQGTQVTVSS", "Property name": "polyreactivity (PSR sort gate)", "Meas value": "high polyreactivity"}
{"Input sequence": "QDQLVESGGGLVQAGGSLRLSCAASGLIFNVNNMGWYRQAPGKDRELVAAISWSGTSTYYADSVKGRFTISRDKAKNTVYLQMNSLKPEDTAVYYCAAYNHRWEYEYWGQGTQVTVSS", "Property name": "polyreactivity (PSR sort gate)", "Meas value": "high polyreactivity"}
{"Input sequence": "QVQLVESGGGLVQAGGRLRLSCAASGSTFEEYAMGWYRQAPGKERELVAGITWGGGSTYYADSVKGRFTISRDNAKNTVYLQMNSQKPEDTAVYYCAAEPGWYADTPASDSKYDYWGQGTQGTVSS", "Property name": "polyreactivity (PSR sort gate)", "Meas value": "low polyreactivity"}
{"Input sequence": "QVQLVESGGGSVQAGGSLRLCCAASGRILESYAMGWYRQAPGKERELVAAINSGASTYYADSVKGRFTISRDNAKNTVYLPMNSLKPEDTAVYYCAADYRYGAYDDWGQGTQVTVSS", "Property name": "polyreactivity (PSR sort gate)", "Meas value": "low polyreactivity"}
{"Input sequence": "QVQVVESGGCLVQAGGSLRLSCAASGRMFRRYAMGWYRQAPGKERELVAAISSGGSTYYADSVKGRFTISRDNAKNTVYLQMNSLKPEDTAVYYCNAKVGAYLNYGYWGQGTQVTVSS", "Property name": "polyreactivity (PSR sort gate)", "Meas value": "low polyreactivity"}
{"Input sequence": "QVHLVESGGGLVQAGGSLRLSCAASGRTFYVYAMGWYIQAPGKERELVATITSRGGRTYYADSVKGRFTISRDNAKNTVYLQMNSLKPEDTAVYYCNAAWWKVSYVRQKYYYWGQGTQVTVSS", "Property name": "polyreactivity (PSR sort gate)", "Meas value": "high polyreactivity"}
{"Input sequence": "QVQLVETGGGLVQAGGSLRLSCAASGRTFTKYAMGWYRQAPGKERELVAAISGNGGSTHYADSVKGRFTISRDNAKNTVYLQMNSLKPEDTAVYYCAADHRHKSNSWGQGTQVTVSS", "Property name": "polyreactivity (PSR sort gate)", "Meas value": "low polyreactivity"}
{"Input sequence": "QVQLEESGGGLVQAGGSLRLSCAASGIIFWYNAMGGSRQAPGKETELVAAISRGGGNTYADSVKGRFTISRDNAKNTVYLQMKSLKEVDTAVYYCAAKRSGYRFNTRWFRLPKYDYWGQGNQVTVSS", "Property name": "polyreactivity (PSR sort gate)", "Meas value": "low polyreactivity"}
